Target: LC3B (for BLI) (human, UniProt Q9GZQ8 1-120)
Experimental Details: BLI; biotinylated LIR peptide immobilized on streptavidin biosensor, ATG8 in solution; 25 mM Tris pH 7.5, 150 mM NaCl, 0.5 mM TCEP, 0.1% Tween20, 1 mg/ml BSA; 25 °C; Kd from response against concentration
Condition: both partners purified
*: point of attachment. Biotin = O=C1N[C@H]2[C@H](CS[C@H]2CCCCC(=O)*)N1; linker = not defined here
Observed Property: pKd
Lab note: report pKd as minus log10 of the concentration in molar units, number only.

Lookup: GET /values?readout=pKd&item= {Biotin-linker}-KEEEEDSTFTNISLADDIDH-NH2 (reading uncertain, SCOC isoform 3 aa 6-25; also called SCOC (WT) LIR domain peptide; SCOC LIR; source: synthetic peptide) [SCOC WT (aa 6–25) LIR peptide]
Found: 3.57
